- system.name: human CYP17 in H295R adrenocortical carcinoma cells (Homo sapiens)
- Construct: H295R Adrenocortical carcinoma cells [NCI-H295A, ATCC Number CRL-2128, American Type Culture Collection
- experiment.notes: Cell-based human CYP17 inhibition assay, H295R cells
- condition.summary: 16 hours, read-out: CYP17 (human H295R adrenal cells)
pIC50: −log10 of the molar value.
measurement.label: pIC50

Answered cases to consult:
>>> result_value("CCC(O)(c1ccncc1)c1ncc(-c2ccc(F)cc2)s1 (centres unmarked) [Example 13]")
"5.00 to 6.70"
>>> result_value("CC(O)(c1ccncc1)c1nc(-c2ccc(F)cc2)ns1 (centres unmarked) [Example 52]")
"> 7.30"
>>> result_value("CC(O)(c1ccncc1)c1cnc(-c2ccc(F)cc2)s1 (single isomer, unassigned) [Example 8]")
"5.00 to 6.70"
>>> result_value("CC(O)(c1ccncc1)c1cnc(-c2ccc(C(F)(F)F)c(Cl)c2)s1 (centres unmarked) [Example 41]")
"> 7.30"

The recorded pIC50 for CC(O)(c1ccncc1)c1ccc(-c2ccc(C#N)cc2)cn1 (centres unmarked) [Example 10] is 5.00 to 6.70
